From: patent US11147792B2

- SYSTEM TESTED: human α-synuclein (Homo sapiens, UniProt P37840)
- Construct: made in house; host or cells: E. coli
- PROCEDURE TEXT: In vitro Thioflavin T assay of α-synuclein aggregation
- Assay type: biochemical
- EXPERIMENTAL PARAMETERS: read-out: Inhibition of Aggregation αSyn (compound activity range)
Recorded inhibition at 50 µM values for a group of compounds are listed next.

COMPOUND	inhibition at 50 µM
C=CCc1ccc(OC)c(OC)c1 [4-allyl-1,2-dimethoxy-benzene, 4-allyl-1,2-dimethoxybenzene]	-10 to 10%
C=CCc1ccc(O)c(OC)c1 [eugenol, 2-methoxy-4-(prop-2-en-1-yl)phenol]	-10 to 10%
Cc1ccc(C(C)C)cc1O [carvacrol, 2-methyl-5-(propan-2-yl)phenol]	-10 to 10%
Cc1ccc(C(C)C)c(O)c1 [thymol, 5-methyl-2-(propan-2-yl)phenol]	< -10%
COc1cc(/C=C/C(=O)/C=C(O)/C=C/c2ccc(O)c(OC)c2)ccc1O [curcumin]	> 60%
